Test system: S. aureus ATCC 13709
Assay: MIC, S. aureus ATCC 13709
Assay type: cell-based
Conditions: Staphylococcus aureus, ATCC13709, S. aureus; Alamar Blue read after overnight incubation at 35° C.; read-out: MIC Sa
Criterion: MIC strictly less than 8 µg/mL. Met: class 1. Not met: class 0.

molecule="CNc1cccc2c1[nH]c1nc(Oc3cncc(C#N)c3)cc(N3CCN(CCN4CCOCC4)CC3)c12 [Compound 3.59]" measured_target="S. aureus ATCC 13709" label_value="class 1"
molecule="CNc1cccc2c1[nH]c1nc(Oc3cncnc3)nc(Oc3cncnc3)c12 [Compound 8.1]" measured_target="S. aureus ATCC 13709" label_value="class 1"
molecule="CNc1cccc2c1[nH]c1nc(Sc3cnc4cccnc4c3)nc(N3CCC(CO)C3)c12 (stereo not shown) [Compound 1.53]" measured_target="S. aureus ATCC 13709" label_value="class 1"
molecule="CNc1ncnc2c1[nH]c1nc(Oc3cnc(C)nc3)nc(N3CC(N)C4(CC4)C3)c12 (stereo not shown) [Compound 7.08]" measured_target="S. aureus ATCC 13709" label_value="class 0"
molecule="CNc1ncnc2c1[nH]c1nc(-c3cncnc3)nc(N3CC4C(N)C4C3)c12 (stereo not shown) [Compound 7.11]" measured_target="S. aureus ATCC 13709" label_value="class 0"
molecule="CNc1cccc2c1[nH]c1nc(Sc3cnc4cccnc4c3)nc(N3CCN(c4cnccn4)CC3)c12 [Compound 1.54]" measured_target="S. aureus ATCC 13709" label_value="class 1"
molecule="CNc1cccc2c1[nH]c1nc(Sc3cnc4cccnc4c3)nc(N3CCC[C@@H](N)C3)c12 [Compound 1.37]" measured_target="S. aureus ATCC 13709" label_value="class 1"
molecule="CNc1cccc2c1[nH]c1nc(Oc3cnc(C)nc3)cc(N3CC[C@@H](NCCC#N)C3)c12 [Compound 3.10]" measured_target="S. aureus ATCC 13709" label_value="class 0"
molecule="Cc1ncc(Oc2nc(N3C[C@H](NC(=O)CN)C4(CC4)C3)c3c(n2)[nH]c2c(N(C)C(=O)CN)cc(F)cc23)cn1 [Compound 4.427]" measured_target="S. aureus ATCC 13709" label_value="class 0"
molecule="CNc1ccc(C)c2c1[nH]c1nc(Sc3cnc4ccc[n+]([O-])c4c3)nc(N3CC4C(N)C4C3)c12 (stereo not shown) [Compound 1.73]" measured_target="S. aureus ATCC 13709" label_value="class 1"

INPUT: Below 8 µg/mL on MIC? Entry CNc1cccc2c1[nH]c1nc(Oc3cncnc3)cc(N3CCC(C(N)=O)C3)c12 (stereo not shown) [Compound 3.17]
OUTPUT: class 1

INPUT: hey, is MIC for CNc1cc(F)cc2c1[nH]c1nc(Oc3cnc(C)nc3)nc(-c3cncc(N)c3)c12 [Compound 4.450] lower than 8 µg/mL or not?
OUTPUT: class 1

INPUT: Please state whether MIC is below 8 µg/mL for CNc1cccc2c1[nH]c1nc(Oc3cnc4ccoc4c3)cc(N3CC4C(N)C4C3)c12 (stereo not shown) [Compound 3.23]
OUTPUT: class 1

* * *

In this section, each of the compounds is paired with its reported Sa MIC.
Test system: S. aureus ATCC 13709
Assay: MIC, S. aureus ATCC 13709
Format: cell-based
Conditions: Table 10; Sa = S. aureus

Example compounds with recorded Sa MIC:
compound="CNc1cc(F)cc2c1[nH]c1nc(Oc3cnc(C)nc3)nc(N3CCC4(CC4N)C3)c12 (stereo not drawn)" recorded_endpoint="Sa MIC" result="≤0.5 µg/mL"
compound="CNc1cc(F)cc2c1[nH]c1nc(Oc3cnc(C)nc3)nc(N3CCC4(CCC4N)C3)c12 (stereo not drawn)" recorded_endpoint="Sa MIC" result="≤0.5 µg/mL"

INPUT: What does the data say about its Sa MIC? Entry: CNc1cc(F)cc2c1[nH]c1nc(Oc3cnc4cccnc4c3)nc(N3CC4(CCC4N)C3)c12 (stereo not drawn)
OUTPUT: ≤0.5 µg/mL
